System: NCI-H1395
Assay: relative viability (nuclei count vs DMSO), 5 days (fraction); higher = more cells survive
Details: first compound 0.5 µM
property: relative viability
// response body must contain only the number

query: What value of measured relative viability is listed for CC1(C)CCC(c2ccc(Cl)cc2)=C(CN2CCN(c3ccc(C(=O)NS(=O)(=O)c4ccc(N[C@H](CCN5CCOCC5)CSc5ccccc5)c(S(=O)(=O)C(F)(F)F)c4)cc3)CC2)C1 [Navitoclax] + Cc1nc(Nc2ncc(C(=O)Nc3c(C)cccc3Cl)s2)cc(N2CCN(CCO)CC2)n1 [Dasatinib] (partner 0.075 µM) ?
result: 0.483

* * *

relative viability by entry:
System: NCI-H647
Test: relative viability (nuclei count vs DMSO), 5 days (fraction); higher = more cells survive
Details: first compound 0.253 µM
Respond with the number and no other words.

| molecule | readout_value |
| --- | --- |
| Oc1nc(-c2ccc(C(F)(F)F)cc2)nc2c1CSCC2 [XAV939] + CS(=O)(=O)N1CCN(Cc2cc3nc(-c4cccc5[nH]ncc45)nc(N4CCOCC4)c3s2)CC1 [Pictilisib] (partner 1 µM) | 0.378 |
| Oc1nc(-c2ccc(C(F)(F)F)cc2)nc2c1CSCC2 [XAV939] + Cc1nc(NC(=O)N2CCC[C@H]2C(N)=O)sc1-c1ccnc(C(C)(C)C(F)(F)F)c1 [Alpelisib] (partner 2 µM) | 1 |

Now look at this one.
query: Field request: relative viability | item: C=C1C(=O)O[C@@H](CCCCCCCC)[C@@H]1C(=O)O [C-75] + COc1cc2c(Oc3ccc(NC(=O)C4(C(=O)Nc5ccc(F)cc5)CC4)cc3F)ccnc2cc1OCCCN1CCOCC1 [Foretinib] (partner 0.25 µM)
result: 1.12

* * *

System: NCI-H2405
Test: relative viability (nuclei count vs DMSO), 5 days (fraction); higher = more cells survive
Conditions: first compound 0.3162 µM
Here the recorded relative viability is given for each entry.
I'd appreciate a reply containing only the number, no unit.

Some solved entries appear below for comparison.
| compound | relative viability |
| --- | --- |
| NC(=O)Nc1cc(-c2cccc(F)c2)sc1C(=O)N[C@H]1CCCNC1 [AZD7762] + CC(C)C[C@H](NC(=O)[C@H](Cc1ccccc1)NC(=O)c1cnccn1)B(O)O [Bortezomib] (partner 0.002 µM) | 0.943 |
| NC(=O)Nc1cc(-c2cccc(F)c2)sc1C(=O)N[C@H]1CCCNC1 [AZD7762] + COc1cccc2cc(-c3nc([C@H]4CC[C@H](C(=O)O)CC4)n4ncnc(N)c34)[nH]c12 [OSI-027] (partner 0.5 µM) | 0.664 |
| NC(=O)Nc1cc(-c2cccc(F)c2)sc1C(=O)N[C@H]1CCCNC1 [AZD7762] + Nc1nc2[nH]cc(CCc3ccc(C(=O)N[C@@H](CCC(=O)O)C(=O)O)cc3)c2c(=O)[nH]1 [Pemetrexed] (partner 0.2 µM) | 1 |

# next compound below
query: Entry NC(=O)Nc1cc(-c2cccc(F)c2)sc1C(=O)N[C@H]1CCCNC1 [AZD7762] + Cc1nc(Nc2ncc(C(=O)Nc3c(C)cccc3Cl)s2)cc(N2CCN(CCO)CC2)n1 [Dasatinib] (partner 0.075 µM) has what relative viability?
result: 0.157

* * *

Tested on: NCI-H1651
Experiment: relative viability (nuclei count vs DMSO), 5 days (fraction); higher = more cells survive
Conditions: first compound 0.8 µM
property: relative viability
Reply with just the number.

Consider the following illustrative entries.
| compound | relative viability |
| --- | --- |
| Oc1nc(-c2ccc(C(F)(F)F)cc2)nc2c1CSCC2 [XAV939] + CC(C)C[C@H](NC(=O)[C@H](Cc1ccccc1)NC(=O)c1cnccn1)B(O)O [Bortezomib] (partner 0.002 µM) | 0.942 |
| Oc1nc(-c2ccc(C(F)(F)F)cc2)nc2c1CSCC2 [XAV939] + Cc1cc(Nc2cc(N3CCN(C)CC3)nc(Sc3ccc(NC(=O)C4CC4)cc3)n2)n[nH]1 [Tozasertib] (partner 0.1 µM) | 0.763 |
| C=C1C(=O)O[C@@H](CCCCCCCC)[C@@H]1C(=O)O [C-75] + Cc1nc(NC(=O)N2CCC[C@H]2C(N)=O)sc1-c1ccnc(C(C)(C)C(F)(F)F)c1 [Alpelisib] (partner 2 µM) | 1.02 |

query: Please give the measured relative viability for this compound: C=C1C(=O)O[C@@H](CCCCCCCC)[C@@H]1C(=O)O [C-75] + CS(=O)(=O)CCNCc1ccc(-c2ccc3ncnc(Nc4ccc(OCc5cccc(F)c5)c(Cl)c4)c3c2)o1 [Lapatinib] (partner 2 µM)
result: 0.816

query: Bench note: what relative viability did C=C1C(=O)O[C@@H](CCCCCCCC)[C@@H]1C(=O)O [C-75] + N=C(N)NC(=N)NCCc1ccccc1 [Phenformin] (partner 250 µM) show?
result: 0.354

query: # lookup: relative viability of Oc1nc(-c2ccc(C(F)(F)F)cc2)nc2c1CSCC2 [XAV939] + CS(=O)(=O)CCNCc1ccc(-c2ccc3ncnc(Nc4ccc(OCc5cccc(F)c5)c(Cl)c4)c3c2)o1 [Lapatinib] (partner 2 µM)
result: 0.904

query: Quick one: relative viability of C=C1C(=O)O[C@@H](CCCCCCCC)[C@@H]1C(=O)O [C-75] + CC(C)C[C@H](NC(=O)[C@H](Cc1ccccc1)NC(=O)c1cnccn1)B(O)O [Bortezomib] (partner 0.002 µM) ?
result: 0.875

query: I'd like to know its relative viability. The compound in question is C=C1C(=O)O[C@@H](CCCCCCCC)[C@@H]1C(=O)O [C-75] + CC(=O)c1c(C)c2cnc(Nc3ccc(N4CCNCC4)cn3)nc2n(C2CCCC2)c1=O [Palbociclib] (partner 0.5 µM)
result: 0.521

query: Record request: relative viability value, item C=C1C(=O)O[C@@H](CCCCCCCC)[C@@H]1C(=O)O [C-75] + Cc1cc(Nc2cc(N3CCN(C)CC3)nc(Sc3ccc(NC(=O)C4CC4)cc3)n2)n[nH]1 [Tozasertib] (partner 0.1 µM)
result: 0.706

query: Which relative viability value belongs to Oc1nc(-c2ccc(C(F)(F)F)cc2)nc2c1CSCC2 [XAV939] + O=C(CCCCCCC(=O)Nc1ccccc1)NO [Vorinostat] (partner 1 µM) ?
result: 0.555
